In what follows, each item is paired with its IC50 for RAR-β (Mus musculus).

compound: CC1=C(/C=C/C(C)=C/C=C/C(C)=C/CO)C(C)(C)CCC1O (centres unmarked)
unitsLabel: nM
IC50: 3800
--
compound: CC1=C(/C=C/C(C)=C/C=C/C(C)=C/CO)C(C)(C)CCC1=O [4-oxo-retinol, all-trans-4-oxo-retinol]
unitsLabel: nM
IC50: 420
